B1: POU domain, class 3, transcription factor 2, residues 262 to 338; numbered along this chain, P20265 (parent)
chain: EDTPTSDDLEQFAKQFKQRRIKLGFTQADVGLALGTLYGNVFSQTTICRFEALQLSFKNMCKLKPLLNKWLEEADSS

Variants of: B1
Procedure summary: abundance fitness (aPCA) (normalised: wild type 0, dead -1); higher = more abundant; growth selection in yeast, the domain comes from the species named
Run conditions: Homo sapiens
Please go through the items and note down their abundance fitness.
One number for each entry.

These recorded examples may help you get a feel for the data.
Let me know recorded abundance fitness for F25Y , thanks.
0.041

Recall and state the measured abundance fitness for K69Q .
-0.003

Specify abundance fitness for L53M and stop.
0.017

Provide each entry's abundance fitness from the list below.
1. V30Q
2. S43L
3. S77E
4. I21C

[-1.11, -0.485, -0.016, -0.204]

I have 3 variants here; please give me abundance fitness for each one.
1. Q27D
2. N68Q
3. N59W

[-0.356, -0.313, -0.074]

Working through the 3 variants below one at a time, give abundance fitness for each.
1. V41S
2. Q54S
3. Q18R

[-0.017, -0.157, -0.077]
